Test system: DENV
Assay: Reduction in viral infection, dengue virus in Vero cells, immunofluorescence (4G2 antibody)
Format: cell-based, Dengue virus New Guinea C (NGC)
Details: 72 h, read-out: EC50 DENV
PARAMETER: EC50

Sample Cc1nccc(C(=O)Nc2ccn([C@@H]3O[C@H](CO)[C@@H](O)C3(F)F)c(=O)n2)n1 — what was its EC50?
< 1.2 µM

N#Cc1ccc(C(=O)Nc2ccn(C3O[C@H](CO)[C@@H](O)[C@H]3F)c(=O)n2)nc1 (stereo in doubt) ?
> 100 µM

O=C(Nc1ccn([C@@H]2O[C@H](CO)[C@@H](O)C2(F)F)c(=O)n1)c1ccc([N+](=O)[O-])cn1 ?
< 1.2 µM

Nc1ccc(C(=O)Nc2ccn(C3O[C@H](CO)[C@@H](O)[C@H]3F)c(=O)n2)nc1 (stereo in doubt) ?
> 100 µM

O=C(Nc1ccn(C2O[C@H](CO)[C@@H](O)[C@H]2F)c(=O)n1)c1cccnn1 (stereo in doubt) ?
> 100 µM

O=C(Nc1ccn([C@@H]2O[C@H](CO)[C@@H](O)C2(F)F)c(=O)n1)c1ccc(Cl)nc1 ?
< 1.2 µM

O=C(Nc1ccn([C@@H]2O[C@H](CO)[C@@H](O)C2(F)F)c(=O)n1)c1ccc(-c2ccccc2)cn1 ?
< 1.2 µM

COc1ccc(C(=O)Nc2ccn([C@@H]3O[C@H](CO)[C@@H](O)C3(F)F)c(=O)n2)cn1 ?
< 1.2 µM

O=C(Nc1ccn([C@@H]2O[C@H](CO)[C@@H](O)C2(F)F)c(=O)n1)c1cccc(-c2ccccc2)n1 ?
< 1.2 µM

O=C(Nc1ccn(C2O[C@H](CO)[C@@H](O)[C@H]2F)c(=O)n1)c1ccncn1 (stereo in doubt) ?
> 100 µM

Cc1nccc(C(=O)Nc2ccn(C3O[C@H](CO)[C@@H](O)[C@H]3F)c(=O)n2)n1 (stereo in doubt) ?
> 100 µM
